Just for reference, patent US20090269356 is where these values come from.

- test_system: complement C5 (full length) (Homo sapiens, UniProt P01031)
- Sequence (P01031 whole entry): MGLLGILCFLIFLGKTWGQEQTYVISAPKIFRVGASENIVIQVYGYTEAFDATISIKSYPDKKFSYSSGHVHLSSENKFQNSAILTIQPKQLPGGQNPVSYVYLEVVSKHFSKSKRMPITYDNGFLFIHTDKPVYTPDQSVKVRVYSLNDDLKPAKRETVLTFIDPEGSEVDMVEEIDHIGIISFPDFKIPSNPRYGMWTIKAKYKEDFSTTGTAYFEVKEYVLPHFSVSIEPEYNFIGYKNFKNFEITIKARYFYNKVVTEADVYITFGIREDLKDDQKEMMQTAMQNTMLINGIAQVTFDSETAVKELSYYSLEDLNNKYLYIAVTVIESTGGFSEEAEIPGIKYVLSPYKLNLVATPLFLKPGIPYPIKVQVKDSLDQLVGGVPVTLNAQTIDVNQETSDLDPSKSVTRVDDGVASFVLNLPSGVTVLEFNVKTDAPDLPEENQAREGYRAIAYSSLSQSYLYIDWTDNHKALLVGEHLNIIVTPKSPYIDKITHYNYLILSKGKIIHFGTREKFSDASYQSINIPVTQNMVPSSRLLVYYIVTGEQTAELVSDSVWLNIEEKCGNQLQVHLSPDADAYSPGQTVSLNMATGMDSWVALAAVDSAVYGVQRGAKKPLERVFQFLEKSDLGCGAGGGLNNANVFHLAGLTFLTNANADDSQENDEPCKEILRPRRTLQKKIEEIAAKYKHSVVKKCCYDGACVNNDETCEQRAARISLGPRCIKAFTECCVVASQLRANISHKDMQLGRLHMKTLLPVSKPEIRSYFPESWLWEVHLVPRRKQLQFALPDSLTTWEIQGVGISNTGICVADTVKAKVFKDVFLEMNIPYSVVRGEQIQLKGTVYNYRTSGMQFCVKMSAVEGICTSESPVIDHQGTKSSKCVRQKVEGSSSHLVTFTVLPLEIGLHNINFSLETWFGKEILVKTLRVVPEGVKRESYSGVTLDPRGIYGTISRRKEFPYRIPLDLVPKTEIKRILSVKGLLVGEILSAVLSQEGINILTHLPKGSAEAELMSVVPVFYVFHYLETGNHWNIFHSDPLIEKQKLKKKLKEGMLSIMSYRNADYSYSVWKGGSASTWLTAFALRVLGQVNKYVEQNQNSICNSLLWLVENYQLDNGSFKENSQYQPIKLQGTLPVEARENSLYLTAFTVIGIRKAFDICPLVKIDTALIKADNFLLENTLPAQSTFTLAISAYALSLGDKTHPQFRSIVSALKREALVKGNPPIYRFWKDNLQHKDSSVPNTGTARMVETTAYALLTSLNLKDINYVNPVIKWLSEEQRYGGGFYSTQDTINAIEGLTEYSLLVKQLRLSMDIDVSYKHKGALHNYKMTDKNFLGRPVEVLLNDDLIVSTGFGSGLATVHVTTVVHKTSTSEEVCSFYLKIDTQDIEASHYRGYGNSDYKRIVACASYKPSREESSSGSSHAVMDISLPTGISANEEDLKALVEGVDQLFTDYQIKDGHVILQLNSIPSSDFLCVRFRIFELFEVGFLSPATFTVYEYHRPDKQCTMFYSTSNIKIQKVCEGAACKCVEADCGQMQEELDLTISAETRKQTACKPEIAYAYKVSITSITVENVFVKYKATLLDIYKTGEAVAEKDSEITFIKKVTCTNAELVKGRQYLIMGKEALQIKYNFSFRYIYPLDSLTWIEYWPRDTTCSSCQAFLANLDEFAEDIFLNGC
- assay_overview: filter; dot blot; 20% plateau; listing entry for SEQ 81 differs in length, printed sequence used
- experimental_conditions: tags: Quidel / Complement Technologies A120.14 / Advanced Research Technologies
pKd: −log10 of the molar value.
measured_parameter: pKd

binder	result
CGUUCUACCUUGGUUUGGCACAGGCAUACAUACGCAGGGGUCGAUCG (mixed, dRmY: A,G deoxy; C,U 2'-OMe) [ARC954]	6.89
